systemTested: human C5 complement protein (Homo sapiens, UniProt P01031)
measurementProtocol: Surface plasmon resonance (SPR), immobilized human C5, 37° C. (Example 27, Table 31)
Format: binding
statedConditions: lowest value obtained where a range of concentrations was analyzed (Table 31)
measuredAttribute: Kd (nM)

Take a look at these entries with their results.
CCCCCOc1cc(N2CC[C@H](C)N(Cc3ccnc4c3c(Cl)cn4CC(=O)N3CCNC(=O)C3)C2=O)ccc1OC; 0.08
CCCCCOc1cc(N2CC(C)CN(Cc3ccc(CC(=O)N4CCCOCC4)cc3OC)C2=O)ccc1OC (stereo not shown); 1.85
CCCCCOc1cc(N2CC(CO)CN(Cc3ccc(CC(=O)N4CCOCC4)cc3OC)C2=O)ccc1OC (stereo not shown); 3.88
CCCCCOc1cc(N2CC[C@H](C)N(Cc3ccnc4c3c(Cl)cn4CC(=O)N3CCC3)C2=O)ccc1OC; 0.22
CCCCCOc1cc(N2CC(C)CN(Cc3ccc(CNC(=O)c4cocn4)cc3OC)C2=O)ccc1OC (stereo not shown); 0.77

[P] CCCCCOc1cc(N2CC[C@H](C)N(Cc3cccc4c3c(Cl)cn4CC(=O)N3CCCOCC3)C2=O)ccc1OC
[Q] CCCCCOc1cc(N2CC(CO)CN(Cc3ccc(CNC(=O)c4cocn4)cc3OC)C2=O)ccc1OC (stereo not shown)
Data request: Hey, which is lower on measured Kd, P or Q ? Identify your pick by its label.
Data returned: P

====

systemTested: human C5 complement protein (Homo sapiens)
measurementProtocol: Surface plasmon resonance (SPR), immobilized human C5, 37° C. (Example 18, Table 24)
Type: binding
statedConditions: lowest value obtained where a range of concentrations was analyzed
pKd: −log10 of the molar value.
measuredAttribute: pKd

# annotated cases, reported pKd shown
CCCCCOc1cc(N2CCCN(Cc3ccnc4c3c(Cl)cn4CC(=O)N3CCOC3)C2=O)ccc1OC; 10.16
COc1cc(CNC(=O)c2cocn2)ccc1CN1CCCN(c2ccc(OC)c(OCCCC3CC3)c2)C1=O; 10.41
COc1cc(CNC(=O)c2cocn2)ccc1CN1CCCN(c2ccc(OC)c(OCCCC3CCC3)c2)C1=O; 10.62
CCCCCOc1cc(N2CCCN(Cc3ccc(CCNC(C)=O)cc3OC)C2=O)ccc1OC; 8.87
COc1ccc(N2CCCN(Cc3ccnc4c3c(Cl)cn4CC(=O)N(C)C)C2=O)cc1OCCCC1CC1; 10.29
COc1cc(CCN2CCCC2)ccc1CN1CCCN(c2ccc(OC)c(OCCCC3CC3)c2)C1=O; 8.94
CCCCCOc1cc(N2CCCN(Cc3ccnc4c3c(Cl)cn4CC(=O)N3CCO[C@@H](CN(C)C)C3)C2=O)ccc1OC; 9.54
CCCCCOc1cc(N2CCCN(Cc3ccnc4c3c(Cl)cn4CC(=O)NC3CCOC3)C2=O)ccc1OC (stereo not drawn); 9.85

[I] COc1ccc(N2CCCN(Cc3ccnc4c3c(Cl)cn4CC(=O)N(C)C)C2=O)cc1OCCC[C@H]1C[C@H]1C (racemic)
[II] CCCCCOc1cc(N2CCCN(Cc3cccc4c3c(Br)cn4CC(=O)N(C)C)C2=O)ccc1OC
[III] COc1cc(CC(=O)N2CCOCC2)ccc1CN1CCCN(c2ccc(OC)c(OCCCC3CCC3)c2)C1=O
[IV] CCCCCOc1cc(N2CCCN(Cc3ccc(CC(=O)N4CCCC4C)cc3OC)C2=O)ccc1OC (stereo not drawn)
Data request: Please rank these compounds by pKd in descending order. Please list each label once, in the requested order.
Data returned: II, I, III, IV

[1] CCCCCOc1cc(N2CCCN(Cc3ccnc4c3c(Cl)cn4CC(=O)N3CC[C@@H](OC)C3)C2=O)ccc1OC
[2] COc1cc(CN)ccc1CN1CCCN(c2ccc(OC)c(OCCCCC3CC3)c2)C1=O
[3] COc1cc(CC(=O)N(C)C)ccc1CN1CCCN(c2ccc(OC)c(OCCCC3CC3)c2)C1=O
Data request: Put the compounds in ascending order of pKd. Form entry: labels listed in requested order.
Data returned: 3, 2, 1

[P] CCCCCOc1cc(N2CCCN(Cc3ccc(CCN4CCCC4(C)C)cc3OC)C2=O)ccc1OC
[Q] CCCCCOc1cc(N2CCCN(Cc3ccnc4c3c(Cl)cn4CC(=O)N3CCOCC3)C2=O)ccc1OC
Data request: Form field 'greater pKd' accepts P or Q ; which applies? // caller expects the label of the chosen entry
Data returned: Q

[a] CCCCCOc1cc(N2CCCN(Cc3cccc4c3c(I)cn4CC(=O)N(C)C)C2=O)ccc1OC
[b] COc1cc(CC(=O)N2CCOCC2)ccc1CN1CCCN(c2ccc(OC)c(OCCCCC3CC3)c2)C1=O
Data request: From the items above, decide which of a and b has the lower pKd reading. # answer = label of selected item
Data returned: b
(b: 9.13, a: 11.05)

[A] CCCCCOc1cc(N2CCCN(Cc3ccc(CCNC=O)cc3OC)C2=O)ccc1OC
[B] C#CC(C)NC(=O)Cn1cc(Cl)c2c(CN3CCCN(c4ccc(OC)c(OCCCCC)c4)C3=O)ccnc21 (stereo not drawn)
[C] COc1cc(CNC(C)=O)ccc1CN1CCCN(c2ccc(OC)c(OCCCCC3CC3)c2)C1=O
[D] COc1cc(CN)ccc1CN1CCCN(c2ccc(OC)c(OCCCC3CCC3)c2)C1=O
Data request: Order field: pKd | Direction: descending (largest first) Form entry: labels listed in requested order.
Data returned: D, B, C, A

[I] CCCCCOc1cc(N2CCCN(Cc3ccnc4c3c(Cl)cn4CC(=O)N3CC(O)C3)C2=O)ccc1OC
[II] CCCCCOc1cc(N2CCCN(Cc3ccnc4c3c(Cl)cn4CC(=O)N(C)O)C2=O)ccc1OC
Data request: Please let me know which one, I or II , has a lower measured pKd value. # reply format: chosen label
Data returned: I
(I: 9.09, II: 10.03)

[1] CCCCCOc1cc(N2CCCN(Cc3ccnc4c3c(Cl)cn4CC(=O)NC3COC3)C2=O)ccc1OC
[2] COc1ccc(N2CCCN(Cc3ccnc4c3ccn4CC(=O)N(C)C)C2=O)cc1OCCC[C@H]1C[C@H]1C (racemic)
Data request: In terms of reported pKd, does 1 or 2 have the smaller number? The response must carry the label of the picked entry.
Data returned: 2
(2: 8.09, 1: 9.80)

[A] COc1ccc(N2CCCN(Cc3cccc4c3c(Cl)cn4CC(=O)N(C)C)C2=O)cc1OCCC[C@H]1C[C@H]1C (racemic)
[B] COc1cc(CCNC(C)=O)ccc1CN1CCCN(c2ccc(OC)c(OCCCC3CC3)c2)C1=O
Data request: Exercise: compare A and B ; which one has the greater pKd? # reply format: chosen label
Data returned: A
(A: 9.49, B: 8.60)

====

systemTested: Human C5 (Homo sapiens)
Construct: purchased Complement Technology
Sequence (P01031 19-1676): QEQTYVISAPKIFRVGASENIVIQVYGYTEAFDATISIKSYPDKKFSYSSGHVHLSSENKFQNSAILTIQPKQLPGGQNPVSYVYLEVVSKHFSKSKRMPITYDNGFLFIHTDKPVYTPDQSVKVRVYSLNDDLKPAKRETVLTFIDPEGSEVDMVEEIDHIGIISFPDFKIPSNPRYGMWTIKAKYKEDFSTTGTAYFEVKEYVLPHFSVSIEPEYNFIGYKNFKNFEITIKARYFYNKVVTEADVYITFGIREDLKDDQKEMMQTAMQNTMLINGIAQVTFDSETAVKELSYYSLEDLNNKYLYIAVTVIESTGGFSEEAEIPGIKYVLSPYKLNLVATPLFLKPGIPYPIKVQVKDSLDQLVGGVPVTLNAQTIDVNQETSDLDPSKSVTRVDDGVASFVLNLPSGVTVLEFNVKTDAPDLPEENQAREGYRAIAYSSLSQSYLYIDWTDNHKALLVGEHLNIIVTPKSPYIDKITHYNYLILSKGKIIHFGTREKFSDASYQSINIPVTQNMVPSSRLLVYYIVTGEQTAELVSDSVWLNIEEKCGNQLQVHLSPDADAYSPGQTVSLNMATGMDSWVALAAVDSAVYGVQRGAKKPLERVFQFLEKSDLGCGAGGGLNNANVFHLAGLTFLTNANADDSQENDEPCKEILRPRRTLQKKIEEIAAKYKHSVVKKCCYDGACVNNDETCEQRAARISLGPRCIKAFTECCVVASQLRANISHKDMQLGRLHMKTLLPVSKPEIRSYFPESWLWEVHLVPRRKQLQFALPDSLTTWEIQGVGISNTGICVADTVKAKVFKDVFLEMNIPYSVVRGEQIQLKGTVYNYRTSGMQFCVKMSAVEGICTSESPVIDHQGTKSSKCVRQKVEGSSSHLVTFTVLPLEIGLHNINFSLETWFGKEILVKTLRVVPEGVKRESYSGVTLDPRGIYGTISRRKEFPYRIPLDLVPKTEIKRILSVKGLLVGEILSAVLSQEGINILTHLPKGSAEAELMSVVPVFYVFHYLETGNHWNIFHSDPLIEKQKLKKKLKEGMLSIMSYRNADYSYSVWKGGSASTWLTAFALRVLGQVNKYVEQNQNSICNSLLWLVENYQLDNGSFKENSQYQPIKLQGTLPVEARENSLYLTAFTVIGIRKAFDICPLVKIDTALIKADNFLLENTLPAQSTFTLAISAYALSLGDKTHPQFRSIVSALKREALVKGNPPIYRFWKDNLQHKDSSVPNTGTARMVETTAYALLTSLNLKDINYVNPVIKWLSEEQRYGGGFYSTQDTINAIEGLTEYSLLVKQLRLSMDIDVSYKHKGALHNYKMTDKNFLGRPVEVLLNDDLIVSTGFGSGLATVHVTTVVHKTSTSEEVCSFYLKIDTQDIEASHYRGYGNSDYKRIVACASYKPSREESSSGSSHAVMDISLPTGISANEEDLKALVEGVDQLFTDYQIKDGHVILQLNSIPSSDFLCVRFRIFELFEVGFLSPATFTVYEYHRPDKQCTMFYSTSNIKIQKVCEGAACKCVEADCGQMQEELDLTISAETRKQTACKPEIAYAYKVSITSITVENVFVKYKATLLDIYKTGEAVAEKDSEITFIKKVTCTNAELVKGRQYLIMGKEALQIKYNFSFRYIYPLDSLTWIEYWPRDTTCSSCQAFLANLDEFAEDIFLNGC
measurementProtocol: Surface plasmon resonance (SPR), compounds on immobilized human C5 (Example 2, Table 5)
Format: binding
statedConditions: lowest value where a range of compound concentrations were analyzed
measuredAttribute: Kd (nM)

COc1ccc(NC(=O)NC(CO)Cc2ccccc2)cc1OCCCC(C)C (stereo not drawn); 540
COc1ccc(NC(=O)NC(CO)c2cccc(F)c2)cc1OCCCC(C)C (stereo not drawn); 114
COc1ccc(NC(=O)NCc2ccccc2CN(C)C)cc1OCCCC(C)C; 120
COc1ccc(NC(=O)NCc2ccccc2OC)cc1CCCCC(C)C; 90
COc1ccc(NC(=O)NC(CO)c2ccccn2)cc1OCCCC(C)C (stereo not drawn); 110
COc1ccc(NC(=O)NCC2CCC(F)(F)CC2)cc1OCCCC(C)C; 4700

[a] COc1ccc(NC(=O)NC(CO)c2ccccc2F)cc1OCCCC(C)C (stereo not drawn)
[b] COc1ccc(NC(=O)NCc2ccc3nccn3c2)cc1OCCCC(C)C
[c] COc1ccc(NC(=O)NCc2ccc(S(C)(=O)=O)cc2)cc1OCCCC(C)C
[d] COc1ccc(NC(=O)NCc2cccc3ncccc23)cc1OCCCC(C)C
[e] C=C(NC(=O)Nc1ccc(OC)c(OCCCC(C)C)c1)c1ccccc1
Data request: Ordering criterion: Kd; begin with the maximum. Returns: the labels arranged in the requested order.
Data returned: e, b, c, a, d
(e: 3900 nM, b: 1600 nM, c: 601 nM, a: 130 nM, d: 74 nM)

[a] COc1ccc(NC(=O)N[C@@H](CO)c2ccccc2)cc1OCCC1CC1
[b] CCCCn1ncc2ccc(NC(=O)N[C@@H](CO)c3ccccc3)cc21
[c] COc1ccc(NC(=O)NCc2cccs2)cc1OCCCC(C)C
[d] COc1ccc(NC(=O)N[C@@H](CO)c2ccccc2)cc1OCCC1CCCC1
Data request: Arrange these 4 compounds in increasing order of Kd. Submit the labels in the order that the ranking request calls for.
Data returned: d, a, c, b
(d: 39 nM, a: 150 nM, c: 564 nM, b: 2100 nM)

====

measurementProtocol: Kinetic solubility in PBS pH 7.4, HPLC-UV (Example 21, Table 27)
Assay type: physicochemical
statedConditions: phosphate buffered saline, aqueous buffer, kinetic from dmso stock, 0.5 M PBS, shaken minimum 24 h at approximately 25° C., HPLC-UV 270 nm
measuredAttribute: solubility kinetic (µM)

// worked examples, solubility kinetic included
CCCCCOc1cc(N2CC(C)CN(Cc3ccc(CC(=O)N(C)C)cc3OC)C2=O)ccc1OC (stereo not shown) [SC0017]; 398
CCCCCOc1cc(N2CCCN(Cc3ccc(CC(=O)N4CCOC(CN(C)C)C4)cc3OC)C2=O)ccc1OC (racemic) [CU0136]; 479
CCCCCOc1cc(N2CC[C@H](C)N(Cc3ccnc4c3c(Cl)cn4CC(=O)N3CCOC(CN(C)C)C3)C2=O)ccc1OC (stereo partly shown) [SC0156]; 348

[I] CCCCCOc1cc(N2CC[C@H](C)N(Cc3cccc4c3c(C)cn4CC(=O)N3CCCOCC3)C2=O)ccc1OC [SC0103]
[II] COc1ccc(N2CCCN(Cc3ccnc4c3c(Cl)cn4CC(=O)N3CCOC(CN(C)C)C3)C2=O)cc1OCCCC1CC1 (stereo not shown) [CU0523]
[III] CCCCCOc1cc(N2CCCN(Cc3cccc4c3ccn4CC(=O)N3CCN=C(N(C)C)C3)C2=O)ccc1OC [CU0239]
[IV] CCCCCOc1cc(N2CCCN(Cc3ccc(CNC(=O)c4cnccn4)cc3OC)C2=O)ccc1OC [CU0677]
Data request: Endpoint returns the given molecules ordered by ascending solubility kinetic. Labels, requested order.
Data returned: I, IV, III, II
